Data origin, for the record: paper PMC2442655

Target: CYP1A2 (Homo sapiens)
Sequence (P05177 1-516): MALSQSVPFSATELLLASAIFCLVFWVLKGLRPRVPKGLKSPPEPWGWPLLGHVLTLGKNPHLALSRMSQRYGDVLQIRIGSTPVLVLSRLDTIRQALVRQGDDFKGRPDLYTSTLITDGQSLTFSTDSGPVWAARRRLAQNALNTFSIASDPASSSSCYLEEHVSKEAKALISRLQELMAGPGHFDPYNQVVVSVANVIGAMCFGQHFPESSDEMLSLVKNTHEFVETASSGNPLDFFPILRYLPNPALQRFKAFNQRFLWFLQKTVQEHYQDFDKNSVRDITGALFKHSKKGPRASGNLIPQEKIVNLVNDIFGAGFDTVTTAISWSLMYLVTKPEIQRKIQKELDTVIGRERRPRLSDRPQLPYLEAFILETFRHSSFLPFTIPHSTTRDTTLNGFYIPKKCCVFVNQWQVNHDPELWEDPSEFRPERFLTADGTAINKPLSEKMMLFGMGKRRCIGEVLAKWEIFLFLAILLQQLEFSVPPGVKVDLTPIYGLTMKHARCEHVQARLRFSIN
Experiment: Vivid CYP1A2 blue fluorescent assay
Details: human
READOUT KIND: inhibition at 30 min, 50 µM (%)
Write it as a number; the unit % goes unstated.

{"columns": ["COMPOUND", "TARGET OR TEST SYSTEM", "ENDPOINT UNIT", "inhibition at 30 min, 50 µM"],
 "data": [
  ["CC(C)=CCC[C@](C)(O)[C@H]1CC[C@]2(C)[C@@H]1[C@H](O)C[C@@H]1[C@@]3(C)CC[C@H](O[C@@H]4O[C@H](CO)[C@@H](O)[C@H](O)[C@H]4O)C(C)(C)[C@@H]3CC[C@]12C [Rh2]", "CYP1A2 (Homo sapiens)", "%", 39.4]
]}

## Task What does the record list as inhibition at 30 min, 50 µM for CC(C)=CCC[C@](C)(O)[C@H]1CC[C@]2(C)[C@@H]1[C@H](O)C[C@@H]1[C@@]3(C)CC[C@H](O)C(C)(C)[C@@H]3[C@@H](O[C@@H]3O[C@H](CO)[C@@H](O)[C@H](O)[C@H]3O[C@@H]3O[C@@H](C)[C@H](O)[C@@H](O)[C@H]3O)C[C@]12C [Rg2] ?
## Result 29.2
